Assay: Half life in plasma was determined at the peroral dose of 10 mg/kg in diet-induced obese (DIO) mice
Type: ADME, organism-based
Design: dose 10 mg/kg, route oral
Conditions: mouse, po
Parameter measured: half-life (h)

Molecule | Observed
CC(CC(C)(C)C)Oc1cccc2ccc(N)nc12 (single isomer, unassigned) | 1.9

* * *

Biological target: Melanin-concentrating hormone receptor 1 (Homo sapiens)
Sequence (Q99705 whole entry): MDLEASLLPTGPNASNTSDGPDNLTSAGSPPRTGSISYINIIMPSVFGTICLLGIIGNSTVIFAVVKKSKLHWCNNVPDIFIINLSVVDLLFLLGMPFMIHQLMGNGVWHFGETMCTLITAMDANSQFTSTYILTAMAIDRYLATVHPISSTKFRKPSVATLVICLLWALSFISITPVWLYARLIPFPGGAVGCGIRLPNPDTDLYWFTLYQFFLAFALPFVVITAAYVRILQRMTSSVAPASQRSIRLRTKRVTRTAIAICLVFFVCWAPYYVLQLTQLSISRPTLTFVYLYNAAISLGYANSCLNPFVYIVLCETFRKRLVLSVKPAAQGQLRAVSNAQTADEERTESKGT
Assay: Concentration required to inhibit binding of [125I]MCH radioligand to human melanin-concentrating hormone receptor 1 in IMR-32 I3.4.2 cell membranes
pIC50: −log10 of the molar value.

Compound | Comparator | pIC50
CCCCCCOc1cccc2ccc(N)nc12 | = | 6.09
CC(C)OCCOc1cccc2ccc(N)nc12 | < | 5.70
CC1CCC(Oc2cccc3ccc(N)nc23)CC1 (configuration not stated) | = | 6.46
CC(C)Oc1cccc2ccc(N)nc12 | = | 6.36
Nc1ccc2cccc(OCCC3CC3)c2n1 | = | 6.31
Nc1ccc2cccc(OCC3CCCC3)c2n1 | = | 7.28
CC(C)COc1cccc2ccc(N)nc12 | < | 5.70
CC1CC1COc1cccc2ccc(N)nc12 (configuration not stated) | = | 5.79
CC(C)C(C)Oc1cccc2ccc(N)nc12 (configuration not stated) | = | 6.70
COCCOCCOc1cccc2ccc(N)nc12 | < | 5.70
COCCOc1cccc2ccc(N)nc12 | < | 5.70
Nc1ccc2cccc(OC3CCCC3)c2n1 | < | 5.70
CCOCCOc1cccc2ccc(N)nc12 | < | 5.70
CC#CCCOc1cccc2ccc(N)nc12 | < | 5.70
CC(CC(C)(C)C)Oc1cccc2ccc(N)nc12 (single isomer, unassigned; (+)) | = | 6.26
CCOCC(C)Oc1cccc2ccc(N)nc12 (configuration not stated) | = | 5.97
CCCC(C)Oc1cccc2ccc(N)nc12 (configuration not stated) | = | 6.98
CSCCOc1cccc2ccc(N)nc12 | < | 5.70
CC(CC(C)(C)C)Oc1cccc2ccc(N3CCCCC3)nc12 (configuration not stated) | < | 5.70
CC(CC(C)(C)C)Oc1cccc2cccnc12 (configuration not stated) | < | 5.70
CCCCOc1cccc2ccc(N)nc12 | = | 6.10
Nc1ccc2cccc(OCCC3CCCCC3)c2n1 | = | 6.09
Nc1ccc2cccc(OC3CCCCC3)c2n1 | = | 6.44
CCC(C)Oc1cccc2ccc(N)nc12 (configuration not stated) | = | 6.76
Nc1ccc2cccc(OC3CCC3)c2n1 | < | 5.70
CCC(CC)Oc1cccc2ccc(N)nc12 | = | 6.49
CCCCCOc1cccc2ccc(N)nc12 | = | 6.24
CC(C)=CCOc1cccc2ccc(N)nc12 | < | 5.70
CC(CC(C)(C)C)Oc1cccc2ccc(N)nc12 (single isomer, unassigned) | = | 7.70
CC(CC(C)(C)C)Oc1cccc2ccc(N)nc12 (stereo in doubt; 19) | = | 7.39
Nc1ccc2cccc(OCC3CCCO3)c2n1 (configuration not stated) | < | 5.70
Nc1ccc2cccc(OCC3CCC3)c2n1 | = | 6.36
CC(CC(C)(C)C)Oc1cccc2ccc(NCC3CC3)nc12 (configuration not stated) | < | 5.70
Nc1ccc2cccc(OCCC(F)(F)F)c2n1 | = | 6.14
CCCOc1cccc2ccc(N)nc12 | = | 5.96
CC1CCCC(Oc2cccc3ccc(N)nc23)C1 (configuration not stated) | = | 6.19
CNc1ccc2cccc(OC(C)CC(C)(C)C)c2n1 (configuration not stated) | = | 6.51
CCC#CCOc1cccc2ccc(N)nc12 | < | 5.70
Nc1ccc2cccc(OCC3CC3)c2n1 | < | 5.70
CC(C)CCOc1cccc2ccc(N)nc12 | = | 6.21
CCC(CC)C(C)Oc1cccc2ccc(N)nc12 (configuration not stated) | = | 6.72
CC(CC(C)(C)C)Oc1cccc2ccc(N3CCCC3)nc12 (configuration not stated) | < | 5.70
COCC(C)Oc1cccc2ccc(N)nc12 (configuration not stated) | = | 6.22
CC(CC(C)(C)C)Oc1cccc2ccc(N(C)C)nc12 (configuration not stated) | < | 5.70
Nc1ccc2cccc(OC3CCCCCC3)c2n1 | = | 6.86
CC(CC(C)(C)C)Oc1cccc2ccc(NCc3ccc(-c4ccccc4Cl)o3)nc12 (configuration not stated) | = | 7.22
CC1CCC(Oc2cccc3ccc(N)nc23)C1 (configuration not stated) | = | 6.08
CC(C)(C)CCOc1cccc2ccc(N)nc12 | = | 6.70
COC(C)(C)CCOc1cccc2ccc(N)nc12 | = | 6.88
CC1CCCCC1Oc1cccc2ccc(N)nc12 (configuration not stated) | = | 7.49
COc1cccc2ccc(N)nc12 | = | 5.80
Nc1ccc2cccc(OCC3CCOC3)c2n1 (configuration not stated) | = | 6.94
CCC(C)COc1cccc2ccc(N)nc12 (configuration not stated) | = | 7.44
Nc1ccc2cccc(OCC3CC4CCC3C4)c2n1 (configuration not stated) | = | 6.86
Nc1ccc2cccc(O)c2n1 | < | 5.70
Nc1ccc2cccc(OCC3CCCCC3)c2n1 | = | 7.05
CC(COC(C)(C)C)Oc1cccc2ccc(N)nc12 (configuration not stated) | = | 6.51
